The measured values listed here are drawn from BindingDB's records for patent US12187742.

Recorded pIC50 values for a group of compounds are listed next.
TARGET ENTITY: DNA-dependent protein kinase catalytic subunit (Homo sapiens, UniProt P78527)
Sequence (P78527 whole entry): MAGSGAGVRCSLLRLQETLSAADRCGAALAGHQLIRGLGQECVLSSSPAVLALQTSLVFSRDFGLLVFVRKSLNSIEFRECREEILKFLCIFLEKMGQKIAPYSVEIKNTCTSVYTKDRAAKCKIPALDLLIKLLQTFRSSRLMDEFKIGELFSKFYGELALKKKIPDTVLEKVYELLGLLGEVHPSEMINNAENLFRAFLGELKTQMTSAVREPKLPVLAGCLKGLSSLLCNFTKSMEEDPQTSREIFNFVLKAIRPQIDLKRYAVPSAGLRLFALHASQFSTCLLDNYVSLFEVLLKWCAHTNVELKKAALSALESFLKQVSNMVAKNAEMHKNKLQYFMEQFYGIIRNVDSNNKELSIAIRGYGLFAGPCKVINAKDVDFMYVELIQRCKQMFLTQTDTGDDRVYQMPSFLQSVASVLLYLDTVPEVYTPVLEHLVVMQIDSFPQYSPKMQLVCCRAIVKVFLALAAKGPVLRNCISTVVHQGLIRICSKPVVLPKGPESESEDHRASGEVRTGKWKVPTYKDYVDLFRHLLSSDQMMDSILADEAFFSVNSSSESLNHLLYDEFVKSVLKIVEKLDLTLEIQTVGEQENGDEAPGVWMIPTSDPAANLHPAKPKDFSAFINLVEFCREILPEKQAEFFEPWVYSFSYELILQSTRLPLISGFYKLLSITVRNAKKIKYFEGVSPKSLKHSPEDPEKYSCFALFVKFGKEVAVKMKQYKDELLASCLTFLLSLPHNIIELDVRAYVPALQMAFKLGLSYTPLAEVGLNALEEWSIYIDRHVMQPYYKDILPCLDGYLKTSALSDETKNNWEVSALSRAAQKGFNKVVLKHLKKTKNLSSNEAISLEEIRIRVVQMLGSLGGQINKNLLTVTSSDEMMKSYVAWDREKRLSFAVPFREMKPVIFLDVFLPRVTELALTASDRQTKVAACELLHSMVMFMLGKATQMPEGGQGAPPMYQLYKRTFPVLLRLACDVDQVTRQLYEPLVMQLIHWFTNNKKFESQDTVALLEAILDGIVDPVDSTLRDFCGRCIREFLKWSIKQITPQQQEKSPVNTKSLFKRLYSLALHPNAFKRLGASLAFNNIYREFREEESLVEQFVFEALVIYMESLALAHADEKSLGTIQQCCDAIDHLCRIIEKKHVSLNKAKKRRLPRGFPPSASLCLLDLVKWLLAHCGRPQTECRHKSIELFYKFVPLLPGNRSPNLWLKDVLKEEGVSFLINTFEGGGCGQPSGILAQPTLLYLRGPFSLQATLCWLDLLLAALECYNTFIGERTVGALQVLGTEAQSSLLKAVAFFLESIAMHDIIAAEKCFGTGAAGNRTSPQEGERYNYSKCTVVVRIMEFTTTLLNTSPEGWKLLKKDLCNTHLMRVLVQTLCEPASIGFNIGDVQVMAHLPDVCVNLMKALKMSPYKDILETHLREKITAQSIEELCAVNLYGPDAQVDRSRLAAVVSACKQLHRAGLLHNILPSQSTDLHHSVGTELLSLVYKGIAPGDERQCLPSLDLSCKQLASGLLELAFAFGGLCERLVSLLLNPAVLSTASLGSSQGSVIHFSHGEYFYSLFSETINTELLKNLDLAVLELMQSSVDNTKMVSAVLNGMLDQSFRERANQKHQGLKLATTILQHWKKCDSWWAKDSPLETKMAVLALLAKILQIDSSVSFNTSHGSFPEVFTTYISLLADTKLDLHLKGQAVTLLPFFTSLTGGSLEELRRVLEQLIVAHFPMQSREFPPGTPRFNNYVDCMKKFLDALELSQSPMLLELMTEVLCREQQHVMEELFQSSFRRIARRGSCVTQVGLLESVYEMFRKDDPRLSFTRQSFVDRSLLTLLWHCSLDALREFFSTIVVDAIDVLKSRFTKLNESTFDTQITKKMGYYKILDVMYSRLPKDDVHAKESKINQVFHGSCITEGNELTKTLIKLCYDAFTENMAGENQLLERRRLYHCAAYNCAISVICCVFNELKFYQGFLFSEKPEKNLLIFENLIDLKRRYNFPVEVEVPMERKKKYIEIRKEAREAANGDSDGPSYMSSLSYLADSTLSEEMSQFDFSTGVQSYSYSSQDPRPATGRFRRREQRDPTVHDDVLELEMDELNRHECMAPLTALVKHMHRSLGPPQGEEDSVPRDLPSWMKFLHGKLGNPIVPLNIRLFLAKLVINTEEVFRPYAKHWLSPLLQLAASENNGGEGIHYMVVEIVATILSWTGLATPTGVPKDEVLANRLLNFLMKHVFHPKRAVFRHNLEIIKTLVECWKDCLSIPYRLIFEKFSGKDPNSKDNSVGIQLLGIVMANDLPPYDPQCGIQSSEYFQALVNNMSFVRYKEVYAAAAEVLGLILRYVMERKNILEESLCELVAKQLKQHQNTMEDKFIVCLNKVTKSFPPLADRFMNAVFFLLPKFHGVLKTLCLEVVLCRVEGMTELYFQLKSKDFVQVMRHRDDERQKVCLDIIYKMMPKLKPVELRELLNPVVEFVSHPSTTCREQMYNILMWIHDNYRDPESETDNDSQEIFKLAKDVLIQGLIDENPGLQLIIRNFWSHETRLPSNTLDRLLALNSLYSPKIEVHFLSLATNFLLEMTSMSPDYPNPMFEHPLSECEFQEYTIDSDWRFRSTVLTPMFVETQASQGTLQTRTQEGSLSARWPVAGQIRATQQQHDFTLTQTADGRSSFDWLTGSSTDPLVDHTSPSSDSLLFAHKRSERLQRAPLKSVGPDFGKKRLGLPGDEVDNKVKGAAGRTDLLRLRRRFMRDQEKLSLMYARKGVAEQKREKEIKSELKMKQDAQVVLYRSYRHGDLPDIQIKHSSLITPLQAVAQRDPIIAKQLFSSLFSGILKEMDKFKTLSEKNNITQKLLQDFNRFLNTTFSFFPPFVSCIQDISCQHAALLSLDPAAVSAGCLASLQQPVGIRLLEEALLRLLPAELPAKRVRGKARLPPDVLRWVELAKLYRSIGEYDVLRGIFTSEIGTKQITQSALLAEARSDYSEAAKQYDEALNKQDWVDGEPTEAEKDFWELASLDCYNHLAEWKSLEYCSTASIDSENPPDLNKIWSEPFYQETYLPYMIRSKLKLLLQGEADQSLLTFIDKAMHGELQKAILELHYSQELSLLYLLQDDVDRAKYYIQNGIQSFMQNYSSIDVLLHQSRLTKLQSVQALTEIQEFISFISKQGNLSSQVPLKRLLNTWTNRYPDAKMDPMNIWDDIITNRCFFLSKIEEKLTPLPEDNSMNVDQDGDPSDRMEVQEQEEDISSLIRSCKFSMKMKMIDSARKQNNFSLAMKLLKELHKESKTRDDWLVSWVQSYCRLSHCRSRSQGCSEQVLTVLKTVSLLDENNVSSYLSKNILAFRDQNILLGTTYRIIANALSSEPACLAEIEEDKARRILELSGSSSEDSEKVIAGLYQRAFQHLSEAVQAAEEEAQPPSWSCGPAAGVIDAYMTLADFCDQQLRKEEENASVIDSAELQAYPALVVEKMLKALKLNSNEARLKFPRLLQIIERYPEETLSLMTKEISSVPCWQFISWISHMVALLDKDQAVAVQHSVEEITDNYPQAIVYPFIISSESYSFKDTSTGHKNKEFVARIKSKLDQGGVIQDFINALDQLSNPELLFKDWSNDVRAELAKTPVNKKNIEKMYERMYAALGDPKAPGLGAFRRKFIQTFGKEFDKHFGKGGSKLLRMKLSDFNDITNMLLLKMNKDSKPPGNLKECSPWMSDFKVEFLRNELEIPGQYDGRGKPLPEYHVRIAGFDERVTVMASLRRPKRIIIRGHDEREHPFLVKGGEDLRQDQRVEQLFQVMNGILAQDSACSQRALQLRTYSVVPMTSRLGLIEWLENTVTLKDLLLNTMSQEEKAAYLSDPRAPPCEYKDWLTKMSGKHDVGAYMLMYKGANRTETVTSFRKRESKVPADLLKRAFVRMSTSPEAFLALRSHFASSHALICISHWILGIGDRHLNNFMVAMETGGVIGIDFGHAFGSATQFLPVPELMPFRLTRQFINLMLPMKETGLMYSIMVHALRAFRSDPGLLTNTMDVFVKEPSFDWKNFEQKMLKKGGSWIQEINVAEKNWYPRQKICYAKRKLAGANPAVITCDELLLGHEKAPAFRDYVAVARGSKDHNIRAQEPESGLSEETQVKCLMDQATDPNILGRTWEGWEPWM
ASSAY METHOD TEXT: DNA-PK Enzyme-Linked Immunosorbent Assay
pIC50: −log10 of the molar value.

Sample answers from the record:
# COMPOUND, TARGET ENTITY, REPORTED
records = [
    ("CN(C)CCCOc1ncc(-c2ccc3ncc4c(c3c2)C2(CC2)C(=O)N4C)cc1NS(=O)(=O)c1ccc(C(F)(F)F)cc1", "DNA-dependent protein kinase catalytic subunit (Homo sapiens, UniProt P78527)", "> 9.30"),
    ("COc1ncc(-c2ccc3ncc4c(c3c2)C2(CC2)C(=O)N4C)cc1NS(=O)(=O)c1cccc(C(C)O)c1 (stereo not drawn)", "DNA-dependent protein kinase catalytic subunit (Homo sapiens, UniProt P78527)", "> 9.30"),
]

Moving on to the next compound.
DNA-dependent protein kinase catalytic subunit (Homo sapiens, UniProt P78527) assay, compound CN1CC=C(c2ncc(-c3ccc4ncc5c(c4c3)C3(CCC3)C(=O)N5C)cc2NS(C)(=O)=O)CC1 , recorded pIC50 = > 9.30
